assay: LC retention time (Atlantis T3, 5-95% MeOH gradient, 0.1% formic acid); higher = more retained / less polar
The reader will find reported LC retention time values listed item by item below.
property.name: LC retention time (min)

{"columns": ["compound", "result"],
 "data": [
  ["O=C1C=CC(=C2NC=CNC2=O)C=C1 [Amoxicillin-EP-Impurity-F]", 12.3],
  ["CC1(C)CCC(Cc2ccc(Cl)cc2)C1(O)Cn1cncn1 (centres undefined) [Metconazole]", 21.3],
  ["CCOC(=O)C1CC(=O)C(=C([O-])C2CC2)C(=O)C1 (centres undefined) [Trinexapac-ethyl]", 18.8],
  ["CCCC(NC(C)C(=O)N1C(C(=O)[O-])CC2CCCCC21)C(=O)OCC (centres undefined) [Perindopril]", 15.5],
  ["CC1=CC(=O)[N-]S(=O)(=O)O1 [Acesulfam]", 9.43],
  ["COc1ccc2c3c1OC1C(=O)CCC4C(C2)[NH+](C)CCC314 (centres undefined) [Hydrocodone]", 9.79],
  ["CCCCCCCCCCCCCC[N+](C)(C)CCCCCCCCCCCCCC [Dimethylditetradecylammonium (=ATMAC-18)]", 21.6],
  ["[NH3+]C(Cc1cc(I)c(O)c(I)c1)C(=O)[O-] [3-5-Diiodo-L-tyrosine]", 13.2],
  ["O=c1[nH]cc(F)c(=O)[nH]1 [5-Fluorouracil]", 5.37],
  ["CC#Cc1cc(C)nc(Nc2ccccc2)n1 [Mepanipyrim]", 20.2],
  ["CSc1nc(NC2CC2)nc(NC(C)(C)C)n1 [Irgarol]", 19],
  ["CC(C)c1ccc(NC(N)=O)cc1 [Isoproturon-didemethyl (=1-(4-Isoprophenyl)urea)]", 17.7],
  ["CC1(C(=O)Nc2ccc(O)c(Cl)c2Cl)CCCCC1 [Fenhexamid]", 20.1],
  ["O=C(Nc1ccccc1)N(Cc1ccc(Cl)cc1)C1CCCC1 [Pencycuron]", 21.4],
  ["O=C1Nc2ccc(Cl)cc2C(c2ccccc2)=NC1O (centres undefined) [Oxazepam]", 18.4],
  ["COc1cccc(C2(O)CCCCC2C[N+](C)(C)[O-])c1 (centres undefined) [Tramadol-N-oxide]", 12.7],
  ["C[NH2+]C(C)C(=O)c1ccc(C)cc1 (centres undefined) [Mephedron (=4-Methylmethcathinon)]", 11.4],
  ["C[NH2+]C(CC(C)C)C(=O)NC1C(=O)NC(CC(N)=O)C(=O)NC2C(=O)NC3C(=O)NC(C(=O)NC(C(=O)[O-])c4cc(O)cc(O)c4-c4cc3ccc4O)C(O)c3ccc(c(Cl)c3)Oc3cc2cc(c3OC2OC(CO)C(O)C(O)C2OC2CC(C)([NH3+])C(O)C(C)O2)Oc2ccc(cc2Cl)C1O (centres undefined) [Vancomycin]", 9.01],
  ["CC(=O)N(C)N(C(=O)C(=O)N(C)C)c1ccccc1 [AMDOPH]", 13.9],
  ["Cc1cc(C2CC2)nc(Nc2ccccc2)n1 [Cyprodinil]", 19.8],
  ["NS(=O)(=O)Cc1noc2ccccc12 [Zonisamide]", 13.1],
  ["CCC[NH2+]C(C)C(=O)Nc1ccccc1C (centres undefined) [Prilocain]", 11.7],
  ["Cc1cc(N(C2OC(C(=O)[O-])C(O)C(O)C2O)S(=O)(=O)c2ccc(N)cc2)no1 (centres undefined) [Sulfamethoxazole-N1-Glucuronide]", 11.8],
  ["[O-]n1nnc2ccccc21 [1-Hydroxybenzotriazole H]", 11.6],
  ["CCOC(=O)C1=NOC(c2ccccc2)(c2ccccc2)C1 [Isoxadifen-ethyl]", 20.6],
  ["CC1(C)CC1C(=O)NC(=CCCCCSCC([NH3+])C(=O)[O-])C(=O)[O-] (centres undefined) [Cilastatin]", 13.6],
  ["Cc1cccc(Nc2ccncc2S(=O)(=O)[N-]C(=O)NC(C)C)c1 [Torasemid]", 15.6],
  ["C=CS(=O)(=O)[O-] [Vinylsulfonic-acid]", 3.84],
  ["COc1nc(NC(=O)[N-]S(=O)(=O)c2ccccc2C(F)(F)F)nc(C(F)(F)F)n1 [Tritosulfuron]", 19.6],
  ["CCOCCN(C(=O)CCl)C(=C(C)C)c1ccccc1 [Pethoxamid]", 20.3],
  ["Cc1nnc(-c2ccccc2)c(=O)[n-]1 [Metamitron-Desamino]", 14.5],
  ["CCC(C)(C)C(=O)OC1CC(C)C=C2C=CC(C)C(CCC3CC(O)CC(=O)O3)C21 (centres undefined) [Simvastatin]", 22.9],
  ["CCCCCCCCn1sc(Cl)c(Cl)c1=O [4-5-Dichloro-2-n-octyl-isothiazol-3(2H)-on (=DCOIT)]", 22.7],
  ["O=C([O-])C(F)(F)C(F)(F)C(F)(F)F [PFBA]", 18.6],
  ["O=C(Nc1ccc(F)cc1F)c1cccnc1Oc1cccc(C(F)(F)F)c1 [Diflufenican]", 21.4],
  ["CCCCOc1ccc(CC(=O)NO)cc1 [Bufexamac]", 17.9],
  ["O=C([O-])C=C(F)C(F)(F)C(F)(F)C(F)(F)C(F)(F)C(F)(F)F [6-2-FTUCA]", 23.2],
  ["Nc1ncnc2c1ncn2C1OC(CO)C(O)C1O (centres undefined) [Adenosine]", 7.57],
  ["Cc1c(N(C)C)c(=O)n(-c2ccccc2)n1C [4-Dimethylaminoantipyrin (=Aminopyrin)]", 9.33]
]}
